STUDY_TARGET: T1, SNTG1, Q9NSN8
T1 sequence (Q9NSN8 52-150, limits assumed, looked up): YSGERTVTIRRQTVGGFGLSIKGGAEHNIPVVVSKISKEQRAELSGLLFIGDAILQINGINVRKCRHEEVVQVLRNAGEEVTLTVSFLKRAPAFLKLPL
PROTOCOL_NOTES: holdup assay
Parameters: key: below the threshold = too weak to quantify, mostly under pKd 3.1 to 4
PROTOCOL_CONDITIONS: plain residues with an end cap or a label only (N-terminal biotin on a linker: ado-ado)
READOUT_NAME: pKd

Worked examples follow.
QSPANIYYKV [EFNB1, P52799]	below the threshold
QSLNRMEYIV [JAG1, P78504]	below the threshold
PDGQCTVTEV [RNF146, Q9NTX7]	4.68
IKAIVDLTGL [TRAF2, Q12933]	below the threshold
PAPSSGKDYV [CLDN1, O95832]	below the threshold

Lab note: RRRESYSTTV [EVI5, O60447] gave pKd of 3.63

Lab note: VNKSKLLTDV [KCNA1, Q09470] gave pKd of below the threshold

Lab note: KKAPTNEFYA [SDC4, P31431] gave pKd of below the threshold

Lab note: SNAGNTATKA [NOSTRIN, Q8IVI9] gave pKd of below the threshold

Lab note: RRLPGKETMA [GRIK2, Q13002] gave pKd of below the threshold

Lab note: ETQVTAETVI [TMEM225B, P0DP42] gave pKd of 3.9

Lab note: SKSNFGSEPL [KIF17, Q9P2E2] gave pKd of below the threshold

Lab note: SGSLKLMTTV [DACT1, Q9NYF0] gave pKd of below the threshold

Lab note: TSQESEDTYL [TBC1D10A, Q9BXI6] gave pKd of below the threshold

Hey, just so you know, these numbers are from paper PMC9482650.
